For each of the compounds below, state its TGI.
# System: HT29 colon
# test name: NCI tumour cell line growth inhibition, 48 h

Which TGI reading was recorded for the compound C=CCNC(=O)/C(Cc1cc(Br)c(OC)c(Br)c1O)=N\O ?
35 µM

Given the entry Cc1ccc(C)c(/C(=N\N=C(N)N)C2CC2)c1 , report its measured TGI.
> 100 µM

So what does the record say about TGI for CCOC(=O)c1c(C)n(CC(C)C)c2c1cc1oc(=O)c(=O)n3cnc2c13 ?
> 50 µM

Suppose we examine the compound C[C@H]1COC2(c3ccccc3)CCC(=O)N12 (stereo partly drawn) ; what TGI value has been reported?
> 100 µM

Entry CC1(C)C=C(/C=N/Nc2ccc(Br)cc2)C(C#N)=C(O)C1(C#N)C#N has what TGI?
> 100 µM

Value lookup for TGI; key = c1ccc([C@@H]2N[C@@]3(CO[Si](c4ccccc4)(c4ccccc4)c4ccccc4)CC[C@H]4CN[C@@H]2[C@H]43)cc1
7.17 µM

Give its TGI value. Item: COC(=O)[C@@H](Cc1c[nH]c2ccccc12)NC(=O)/C=C/c1ccccc1
14.1 µM

Would you mind telling me what TGI value was observed for Cc1ccc(C2SCc3nc4ccc(C(=O)c5ccccc5)cc4n32)cc1 (stereo not drawn) ?
> 100 µM

GET /values?readout=TGI&item= C[C@@H]1CC[C@H]2C(COC/C=C/COCC3=C(C(F)(F)F)O[C@@H]4O[C@@]5(C)CC[C@H]6[C@H](C)CC[C@@H]3[C@@]46OO5)=C(C(F)(F)F)O[C@@H]3O[C@@]4(C)CC[C@@H]1[C@]32OO4
> 100 µM

// TGI lookup, key: C[C@]12CC(c3ccccc3O1)C(C#N)C(=O)N2 (stereo partly drawn)
> 100 µM

Param item = CC(C)CNc1nc(N)[nH]c(=O)c1NC=O ; retrieve measured TGI.
> 100 µM

Tell me the measured TGI of Cn1c(=O)c2c(nc(C[N+]3([O-])CCOCC3)n2C)n(C)c1=O , please.
> 100 µM

Value lookup for TGI; key = CCCCSCc1nc2nc(Cl)c(Cl)nc2[nH]1
> 100 µM

Entry under review: NC1=NC2(O)c3ccccc3C(=O)C2(O)N1 (stereo not drawn) . Reported TGI?
> 100 µM

Which value of TGI has been reported for CCOC(=O)c1nc2ccc(Cl)cc2c2c1CCO2 in the records?
> 100 µM

Any idea what its TGI is? The compound is Cc1cn(CC2=NCC(C)(C)CN2)c(=O)[nH]c1=O
> 100 µM

Recorded TGI of Cc1cnc2[nH]c(-c3ccc(F)cc3)cc(=O)c2c1 , please.
> 100 µM

What does the data say about its TGI? Entry: O=C(CCCNC(=O)OCc1ccccc1)OCc1ccc2c(c1)C(=O)c1ccccc1C2=O
> 100 µM

Recorded TGI of CCOC(=O)C1=C(C)N(C)C(=S)NC1c1cccc(O)c1 (stereo not drawn) , please.
> 100 µM

Field request: TGI | item: O=[N+]([O-])c1cc(Cl)cc2c1nc(NCCO)c1ccccc12
> 43 µM

Fill in the blank: the reported TGI of Cc1ncc(CO)c(CN)c1O is ____.
> 100 µM

TGI lookup needed for c1ccc2c[n+](CCCCCCCCCC[n+]3ccc4ccccc4c3)ccc2c1 , thanks.
> 10 µM

Data request, read-out TGI, for Cc1[nH]nc2c1N=C(c1ccccc1F)c1cc(C#N)ccc1N2
7.41 µM

Value lookup for TGI; key = CCOC(=O)C1=C(NC(C)(C)C)OCC1=O
> 100 µM

GET /values?readout=TGI&item= O=C1NC(=O)C2(CCC(O)C2)c2cc[n+]([O-])cc21 (stereo not drawn)
> 100 µM

Endpoint output: TGI of CC1CCCN(CC(O)CN2CCCc3ccccc32)C1 (stereo not drawn) . Value?
> 100 µM

Fill in: TGI of NC12CC3CC(C1)CC(Cl)(C3)C2 is ___
> 100 µM

Returns the measured TGI for the input compound. Input: COc1ccc(/C=C/c2nc(=S)[nH][nH]2)cc1
> 100 µM
